System: Staphylococcus aureus Smith
protocol-details: MIC, two-fold agar dilution method
Format: cell-based
reported-conditions: nutrient agar
The entries below come with measured minimum inhibitory concentration (MIC) values attached.
attribute-measured: minimum inhibitory concentration (MIC)

* Cc1c(N)nc(C(CC(N)=O)NCC(N)C(N)=O)nc1C(=O)NC(C(=O)NC(C)C(O)CC(=O)NC(C(=O)NC(OC1OC(C)C(N)C(O)C1O)C(O)c1nc(-c2nc(C(=O)NCC(O)CN)cs2)cs1)C(C)O)C(OC1OC(CO)C(O)C(O)C1OC1OC(CO)C(O)C(OC(N)=O)C1O)c1c[nH]cn1 (centres unmarked) [Tallysomycin S4b] | 0.8
* Cc1c(N)nc(C(CC(N)=O)NCC(N)C(N)=O)nc1C(=O)NC(C(=O)NC(C)C(O)CC(=O)NC(C(=O)NC(OC1OC(C)C(N)C(O)C1O)C(O)c1nc(-c2nc(C(=O)NCCC[S+](C)C)cs2)cs1)C(C)O)C(OC1OC(CO)C(O)C(O)C1OC1OC(CO)C(O)C(OC(N)=O)C1O)c1cnc[nH]1.Cl.Cl.Cl.[Cl-] (centres unmarked) [Tallysomycin S2b] | 1.6

----------
The entries below come with measured Antitumor therapeutic index P388 values attached.
Tested on: Lymphocytic leukemia P388
protocol-details: animal or person
Format: in vivo, BDF1 mice
reported-conditions: single dose LD50/ED125; copper-chelated form unless otherwise stated
attribute-measured: Antitumor therapeutic index P388

- Cc1c(N)nc(C(CC(N)=O)NCC(N)C(N)=O)nc1C(=O)NC(C(=O)NC(C)C(O)CC(=O)NC(C(=O)NC(OC1OC(C)C(N)C(O)C1O)C(O)c1nc(-c2nc(C(=O)NCCCC(N)CC(=O)NCCCNCCO)cs2)cs1)C(C)O)C(OC1OC(CO)C(O)C(O)C1OC1OC(CO)C(O)C(OC(N)=O)C1O)c1c[nH]cn1 (centres unmarked) [Tallysomycin S6a]: 21
- Cc1c(N)nc(C(CC(N)=O)NCC(N)C(N)=O)nc1C(=O)NC(C(=O)NC(C)C(O)CC(=O)NC(C(=O)NC(OC1OC(C)C(N)C(O)C1O)C(O)c1nc(-c2nc(C(=O)NCCCC(N)CC(=O)NCCCN)cs2)cs1)C(C)O)C(OC1OC(CO)C(O)C(O)C1OC1OC(CO)C(O)C(OC(N)=O)C1O)c1c[nH]cn1 (centres unmarked) [Tallysomycin S1a]: 21
- Cc1c(N)nc(C(CC(N)=O)NCC(N)C(N)=O)nc1C(=O)NC(C(=O)NC(C)C(O)CC(=O)NC(C(=O)NC(OC1OC(C)C(N)C(O)C1O)C(O)c1nc(-c2nc(C(=O)NCCCN3CCCCC3C)cs2)cs1)C(C)O)C(OC1OC(CO)C(O)C(O)C1OC1OC(CO)C(O)C(OC(N)=O)C1O)c1c[nH]cn1 (centres unmarked) [Tallysomycin S13b]: 50
- CNCCCNC(=O)CC(N)CCCNC(=O)c1csc(-c2csc(C(O)C(NC(=O)C(NC(=O)CC(O)C(C)NC(=O)C(NC(=O)c3nc(C(CC(N)=O)NCC(N)C(N)=O)nc(N)c3C)C(OC3OC(CO)C(O)C(O)C3OC3OC(CO)C(O)C(OC(N)=O)C3O)c3c[nH]cn3)C(C)O)OC3OC(C)C(N)C(O)C3O)n2)n1 (centres unmarked) [Tallysomycin S11a]: 30
- Cc1c(N)nc(C(CC(N)=O)NCC(N)C(N)=O)nc1C(=O)NC(C(=O)NC(C)C(O)CC(=O)NC(C(=O)NC(OC1OC(C)C(N)C(O)C1O)C(O)c1nc(-c2nc(C(=O)NCCNCC(C)O)cs2)cs1)C(C)O)C(OC1OC(CO)C(O)C(O)C1OC1OC(CO)C(O)C(OC(N)=O)C1O)c1c[nH]cn1 (centres unmarked) [Tallysomycin S5b]: 70
- Cc1c(N)nc(C(CC(N)=O)NCC(N)C(N)=O)nc1C(=O)NC(C(=O)NC(C)C(O)CC(=O)NC(C(=O)NC(OC1OC(C)C(N)C(O)C1O)C(O)c1nc(-c2nc(C(=O)NCCC[S+](C)C)cs2)cs1)C(C)O)C(OC1OC(CO)C(O)C(O)C1OC1OC(CO)C(O)C(OC(N)=O)C1O)c1cnc[nH]1.Cl.Cl.Cl.[Cl-] (centres unmarked) [Tallysomycin S2b]: 35
- Cc1c(N)nc(C(CC(N)=O)NCC(N)C(N)=O)nc1C(=O)NC(C(=O)NC(C)C(O)CC(=O)NC(C(=O)NC(OC1OC(C)C(N)C(O)C1O)C(O)c1nc(-c2nc(C(=O)NCCCC(N)CC(=O)NCCCN(CCO)CCO)cs2)cs1)C(C)O)C(OC1OC(CO)C(O)C(O)C1OC1OC(CO)C(O)C(OC(N)=O)C1O)c1c[nH]cn1 (centres unmarked) [Tallysomycin S8a]: 54
